B1: Zinc finger homeobox protein 3, residues 2147 to 2202; numbered along this chain, Q15911 (parent)
chain: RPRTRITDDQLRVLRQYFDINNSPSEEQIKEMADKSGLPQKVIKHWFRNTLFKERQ

# Variants of: B1
# assayDetails: abundance fitness (aPCA) (normalised: wild type 0, dead -1); higher = more abundant; growth selection in yeast, the domain comes from the species named
# measurementContext: Homo sapiens
abundance fitness listing for selected variants.
Answer with a number only.

# mutantId, dataValue
measured = [
    ("F18L", -0.137),
    ("Q10H", 0.025),
    ("E27G", -0.071),
    ("T50M", -0.051),
]

Quick one: abundance fitness for `M32C` ?
-0.407

# input variant: `K41R` ; wanted: its abundance fitness
-0.142

Reported abundance fitness, variant `Q10I` : ____
-0.464

Data request, read-out abundance fitness, for `K41N`
-0.053

For the variant `L51A` , what abundance fitness is on record?
-0.037

# query: abundance fitness of entry `R3H`
0.172

Find the recorded abundance fitness belonging to `K44N` and report it.
-0.334

Tell me the measured abundance fitness of `N22G` , please.
-0.152

Look up abundance fitness for this variant: `D19M`
0.044

Data credit: the Human Domainome abundance scans (Beltran et al. 2025)
